# experimental target: Proteasome subunit beta type-10 (Mus musculus, UniProt O35955)
# Sequence (O35955 whole entry): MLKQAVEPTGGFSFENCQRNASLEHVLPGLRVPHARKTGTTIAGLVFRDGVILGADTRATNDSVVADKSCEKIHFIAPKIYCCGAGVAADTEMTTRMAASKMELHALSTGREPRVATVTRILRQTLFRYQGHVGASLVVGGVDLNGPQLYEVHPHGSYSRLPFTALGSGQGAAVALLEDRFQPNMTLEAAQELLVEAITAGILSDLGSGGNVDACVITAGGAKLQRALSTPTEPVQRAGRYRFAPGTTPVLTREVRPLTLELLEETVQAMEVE
# assay remarks: Inhibition of MECL1 in mouse A20 cells by ELISA

compound: COc1ccc([C@@H](O)[C@H](NC(=O)[C@H](C)NC(=O)CN2CCOCC2)C(=O)N[C@@H](CC2=CCCC2)C(=O)[C@@]2(C)CO2)cc1 [ZETOMIPZOMIB]
IC50: 0.522 µM
//
compound: CC(C)C[C@H](NC(=O)CN1CCCCCC1)C(=O)N[C@@H](Cc1ccccc1)C(=O)N[C@@H](Cc1ccccc1)C(=O)[C@@]1(C)CO1
IC50: 0.159 µM
//
compound: Cc1ccc(CC[C@H](NC(=O)[C@H](Cc2ccccc2)NC(=O)[C@H](CC(C)C)NC(=O)CN2CCCCCC2)C(=O)[C@@]2(C)CO2)cc1
IC50: 0.305 µM
//
compound: COc1ccc(C[C@H](NC(=O)[C@H](C)NC(=O)CN2CCOCC2)C(=O)N[C@@H](Cc2ccccc2)C(=O)[C@@]2(C)CO2)cc1
IC50: 0.699 µM

====

# assay remarks: Solubility of the compound in phosphate buffer at pH 7.2 at 10 mg/ml after 24 hrs by HPLC-UV method
# Assay type: physicochemical

mol smiles: COc1ccc(C[C@H](NC(=O)[C@@H](C)NC(=O)[C@H]2CC[C@H](O)CC2)C(=O)N[C@@H](Cc2ccccc2)C(=O)[C@@]2(C)CO2)cc1
quantity unit: µg/mL
rel: =
solubility at 24 h: 240
--
mol smiles: COc1ccc(C[C@H](NC(=O)[C@@H](C)NC(=O)[C@H]2CC[C@H](O)CC2)C(=O)N[C@@H](CC2CCC2)C(=O)[C@@]2(C)CO2)cc1
quantity unit: µg/mL
rel: =
solubility at 24 h: 979
--
mol smiles: COc1ccc([C@@H](O)[C@H](NC(=O)[C@H](C)NC(=O)CN2CCOCC2)C(=O)N[C@@H](CC2=CCCC2)C(=O)[C@@]2(C)CO2)cc1
quantity unit: µg/mL
rel: =
solubility at 24 h: 7070
--
mol smiles: COc1ccc(C[C@H](NC(=O)[C@H](C)NC(=O)CN2CCOCC2)C(=O)N[C@@H](CC2=CCCC2)C(=O)[C@@]2(C)CO2)cc1
quantity unit: µg/mL
rel: =
solubility at 24 h: 2730
--
mol smiles: COc1ccc(C[C@H](NC(=O)[C@H](C)NC(=O)CN2CCOCC2)C(=O)N[C@@H](Cc2ccccc2)C(=O)[C@@]2(C)CO2)cc1
quantity unit: µg/mL
rel: <
solubility at 24 h: 0.5

====

# experimental target: Proteasome subunit beta type-9 (Mus musculus)
# Sequence (P28076 whole entry): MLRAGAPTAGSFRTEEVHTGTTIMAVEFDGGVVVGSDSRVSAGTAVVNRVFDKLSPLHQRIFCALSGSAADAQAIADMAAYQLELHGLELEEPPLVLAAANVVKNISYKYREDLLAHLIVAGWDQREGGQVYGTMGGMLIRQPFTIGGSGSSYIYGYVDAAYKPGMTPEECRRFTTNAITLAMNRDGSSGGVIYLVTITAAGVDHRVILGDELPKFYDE
# assay remarks: Inhibition of LMP2 in mouse A20 cells by ELISA
readout: IC50

compound: Cc1ccc(CC[C@H](NC(=O)[C@H](Cc2ccccc2)NC(=O)[C@H](CC(C)C)NC(=O)CN2CCCCCC2)C(=O)[C@@]2(C)CO2)cc1
readout: IC50
result: > 25000 nM
--
compound: COc1ccc(C[C@H](NC(=O)[C@@H](C)NC(=O)[C@H]2CC[C@H](O)CC2)C(=O)N[C@@H](CC2=CCCC2)C(=O)[C@@]2(C)CO2)cc1
readout: IC50
result: 3960 nM
--
compound: COc1ccc([C@@H](O)[C@H](NC(=O)[C@H](C)NC(=O)CN2CCOCC2)C(=O)N[C@@H](CC2=CCCC2)C(=O)[C@@]2(C)CO2)cc1 [ZETOMIPZOMIB]
readout: IC50
result: 179 nM
--
compound: CC(C)C[C@H](NC(=O)CN1CCCCCC1)C(=O)N[C@@H](Cc1ccccc1)C(=O)N[C@@H](Cc1ccccc1)C(=O)[C@@]1(C)CO1
readout: IC50
result: 415 nM
--
compound: CC1=C(C(=O)N[C@H](C)C(=O)N[C@@H](Cc2c[nH]c3ccccc23)C(=O)N[C@@H](Cc2ccccc2)C(=O)[C@@]2(C)CO2)Cc2ccccc21
readout: IC50
result: 4780 nM
--
compound: COc1ccc(C[C@H](NC(=O)[C@H](C)NC(=O)CN2CCOCC2)C(=O)N[C@@H](Cc2ccccc2)C(=O)[C@@]2(C)CO2)cc1
readout: IC50
result: 328 nM

====

Measured log10 IC50, listed per entry for reference.
# experimental target: Proteasome subunit beta type-9 (Homo sapiens, UniProt P28065)
# Sequence (P28065 whole entry): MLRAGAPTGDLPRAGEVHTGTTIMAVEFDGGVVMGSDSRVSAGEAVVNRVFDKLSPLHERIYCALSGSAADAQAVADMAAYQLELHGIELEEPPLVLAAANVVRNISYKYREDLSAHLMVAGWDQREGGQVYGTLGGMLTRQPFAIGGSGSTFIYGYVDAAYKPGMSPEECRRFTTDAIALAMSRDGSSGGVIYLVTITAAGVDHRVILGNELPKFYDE
# assay remarks: Inhibition of LMP2 in human MOLT4 cells by ELISA
# Format: cell-based
readout: log10 IC50 (log10 of the value in nM)

mol smiles: COc1ccc(C[C@H](NC(=O)[C@H](C)NC(=O)CN2CCOCC2)C(=O)N[C@@H](CC2=CCCC2)C(=O)[C@@]2(C)CO2)cc1
readout: log10 IC50
numeric result: 2.35

mol smiles: COc1ccc(C[C@H](NC(=O)[C@@H](C)NC(=O)[C@H]2CC[C@H](O)CC2)C(=O)N[C@@H](Cc2ccccc2)C(=O)[C@@]2(C)CO2)cc1
readout: log10 IC50
numeric result: 3.55

mol smiles: COc1ccc([C@@H](O)[C@H](NC(=O)[C@H](C)NC(=O)CN2CCOCC2)C(=O)N[C@@H](CC2=CCCC2)C(=O)[C@@]2(C)CO2)cc1
readout: log10 IC50
numeric result: 2.12

mol smiles: COc1ccc(C[C@H](NC(=O)[C@@H](C)NC(=O)[C@H]2CC[C@H](O)CC2)C(=O)N[C@@H](CC2=CCCC2)C(=O)[C@@]2(C)CO2)cc1
readout: log10 IC50
numeric result: 3.27

mol smiles: CC(C)C[C@H](NC(=O)CN1CCCCCC1)C(=O)N[C@@H](Cc1ccccc1)C(=O)N[C@@H](Cc1ccccc1)C(=O)[C@@]1(C)CO1
readout: log10 IC50
numeric result: 2.62

mol smiles: CC1=C(C(=O)N[C@H](C)C(=O)N[C@@H](Cc2c[nH]c3ccccc23)C(=O)N[C@@H](Cc2ccccc2)C(=O)[C@@]2(C)CO2)Cc2ccccc21
readout: log10 IC50
numeric result: 3.34

====

# experimental target: Proteasome subunit beta type-10 (Homo sapiens, UniProt P40306)
# Sequence (P40306 whole entry): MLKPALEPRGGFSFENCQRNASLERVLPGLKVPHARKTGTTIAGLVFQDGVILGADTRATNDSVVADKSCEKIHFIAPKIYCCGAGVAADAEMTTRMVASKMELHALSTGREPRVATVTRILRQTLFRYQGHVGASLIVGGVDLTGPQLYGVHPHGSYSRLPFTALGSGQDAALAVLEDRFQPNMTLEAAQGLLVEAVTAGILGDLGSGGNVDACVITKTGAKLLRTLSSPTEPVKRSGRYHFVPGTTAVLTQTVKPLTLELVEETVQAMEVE
# assay remarks: Inhibition of MECL1 in human MOLT4 cells by ELISA
readout: IC50

compound: COc1ccc([C@@H](O)[C@H](NC(=O)[C@H](C)NC(=O)CN2CCOCC2)C(=O)N[C@@H](CC2=CCCC2)C(=O)[C@@]2(C)CO2)cc1 [ZETOMIPZOMIB]
experimental target: Proteasome subunit beta type-10 (Homo sapiens, UniProt P40306)
readout: IC50
result: 623 nM

compound: COc1ccc(C[C@H](NC(=O)[C@@H](C)NC(=O)[C@H]2CC[C@H](O)CC2)C(=O)N[C@@H](CC2=CCCC2)C(=O)[C@@]2(C)CO2)cc1
experimental target: Proteasome subunit beta type-10 (Homo sapiens, UniProt P40306)
readout: IC50
result: > 25000 nM

compound: COc1ccc(C[C@H](NC(=O)[C@@H](C)NC(=O)[C@H]2CC[C@H](O)CC2)C(=O)N[C@@H](Cc2ccccc2)C(=O)[C@@]2(C)CO2)cc1
experimental target: Proteasome subunit beta type-10 (Homo sapiens, UniProt P40306)
readout: IC50
result: > 25000 nM

compound: Cc1ccc(CC[C@H](NC(=O)[C@H](Cc2ccccc2)NC(=O)[C@H](CC(C)C)NC(=O)CN2CCCCCC2)C(=O)[C@@]2(C)CO2)cc1
experimental target: Proteasome subunit beta type-10 (Homo sapiens, UniProt P40306)
readout: IC50
result: 71 nM

compound: CC(C)C[C@H](NC(=O)CN1CCCCCC1)C(=O)N[C@@H](Cc1ccccc1)C(=O)N[C@@H](Cc1ccccc1)C(=O)[C@@]1(C)CO1
experimental target: Proteasome subunit beta type-10 (Homo sapiens, UniProt P40306)
readout: IC50
result: 97 nM

compound: CC1=C(C(=O)N[C@H](C)C(=O)N[C@@H](Cc2c[nH]c3ccccc23)C(=O)N[C@@H](Cc2ccccc2)C(=O)[C@@]2(C)CO2)Cc2ccccc21
experimental target: Proteasome subunit beta type-10 (Homo sapiens, UniProt P40306)
readout: IC50
result: > 25000 nM
